Catalogue of residual activity readings, one per entry.
# tested-system: Casein kinase I isoform delta (Homo sapiens)
# experimental-setup: at 1 µM
# Description: Millipore: Percentage of residual kinase activity of CSNK1D at 1uM relative to control. Control inhibitor: Jnk Inhibitor II at 100.0uM. Buffer: 8 mM MOPS pH 7.0, 0.2 mM EDTA
endpoint: residual activity

>>> df
                                   compound  obs_value
0                 CC(=O)c1ccc(N2CCOCC2)cc1O        89%
1  CCN(CC)C(=O)c1ccc(Nc2nc(OCC3CCCCC3)c3nc[nH]c3n2)cc1        71%
2  Cc1cncc2cccc(S(=O)(=O)N3CCCN(C(=O)CN)C[C@H]3C)c12        83%
3  Nc1n[nH]c2nnc(-c3c(-c4ccccc4)nn4ccccc34)cc12        60%
4  O=C1Nc2ccccc2/C1=C1/Nc2ccccc2/C1=N\OCCC(O)CO (stereo unspecified)        35%
5              Cc1ccc(S(=O)(=O)/C=C/C#N)cc1        96%
